Molecular target: Peroxisome proliferator-activated receptor gamma (Mus musculus)
Test: Agonist activity at PPARgamma in mouse 3T3-L1 cells by IRBA
pEC50: −log10 of the molar value.
Use 1 (yes) when the recorded pEC50 is no lower than 6; use 0 (no) when it is lower.

Query: Hello, I need to know if CCOc1ccc(-c2ncc(C)c(N(C)CCCOc3ccc4c(c3)CC[C@H]4CC(=O)O)n2)cc1 has measured pEC50 not below 6. Thanks!
Result: 1 (yes)

Query: Hello, I need to know if Cc1cnc(-c2ccc(C(C)(C)C)cc2)nc1N(C)CCCOc1ccc2c(c1)CC[C@H]2CC(=O)O has measured pEC50 not below 6. Thanks!
Result: 1 (yes)

Query: Hello, I need to know if COc1ccc(-c2ncc(C)c(N(C)CCCOc3ccc4c(c3)CC[C@H]4CC(=O)O)n2)cc1 has measured pEC50 not below 6. Thanks!
Result: 0 (no)

Query: Hello, I need to know if Cc1cnc(-c2ccc(Cl)cc2)nc1N(C)CCCOc1ccc2c(c1)CC[C@H]2CC(=O)O has measured pEC50 not below 6. Thanks!
Result: 0 (no)

Query: Hello, I need to know if CCOc1cccc(-c2ncc(C)c(N(C)CCCOc3ccc4c(c3)CC[C@H]4CC(=O)O)n2)c1 has measured pEC50 not below 6. Thanks!
Result: 0 (no)

Query: Hello, I need to know if CCc1ccc(-c2ncc(F)c(N(C)CCCOc3ccc4c(c3)CC[C@H]4CC(=O)O)n2)cc1 has measured pEC50 not below 6. Thanks!
Result: 1 (yes)

Query: Hello, I need to know if Cc1cnc(-c2cccc(Cl)c2)nc1N(C)CCCOc1ccc2c(c1)CC[C@H]2CC(=O)O has measured pEC50 not below 6. Thanks!
Result: 1 (yes)

Query: Hello, I need to know if Cc1nc(-c2ccc(OCCCOc3ccc4c(c3)CC[C@H]4CC(=O)O)nc2)sc1C has measured pEC50 not below 6. Thanks!
Result: 1 (yes)

Query: Hello, I need to know if CCc1ccc(-c2nc(C)cc(N(C)CCCOc3ccc4c(c3)CC[C@H]4CC(=O)O)n2)cc1 has measured pEC50 not below 6. Thanks!
Result: 1 (yes)

Query: Hello, I need to know if CC(=O)c1ccc(-c2ncc(C)c(N(C)CCCOc3ccc4c(c3)CC[C@H]4CC(=O)O)n2)cc1 has measured pEC50 not below 6. Thanks!
Result: 1 (yes)

###

Target: Peroxisome proliferator-activated receptor delta (Mus musculus)
Sequence (P35396 whole entry, the tested form may be a part): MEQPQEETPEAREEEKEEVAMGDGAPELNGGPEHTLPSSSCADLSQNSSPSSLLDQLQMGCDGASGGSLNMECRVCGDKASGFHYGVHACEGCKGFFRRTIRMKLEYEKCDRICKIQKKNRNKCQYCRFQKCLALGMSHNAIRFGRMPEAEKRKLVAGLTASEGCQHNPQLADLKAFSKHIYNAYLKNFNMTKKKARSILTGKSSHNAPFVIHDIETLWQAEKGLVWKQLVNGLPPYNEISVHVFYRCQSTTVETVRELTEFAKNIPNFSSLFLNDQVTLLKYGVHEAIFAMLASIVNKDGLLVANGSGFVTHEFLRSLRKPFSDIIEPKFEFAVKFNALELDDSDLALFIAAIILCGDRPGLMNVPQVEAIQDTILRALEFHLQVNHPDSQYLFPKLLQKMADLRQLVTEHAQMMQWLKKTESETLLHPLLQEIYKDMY
Assay: Activity at mouse PPARdelta expressed in CV1 cells by GAL4 transactivation assay
Assignment: determine reported pIC50 for the given compounds.
The scale used: pIC50 is minus the common logarithm of the concentration in molar units.

Query: Given CC(=O)c1sc(-c2ccc(OCCCOc3ccc4c(c3)CC[C@H]4CC(=O)O)nc2)nc1C , state its recorded pIC50.
Result: 5.86

Query: Given CCc1ccc(-c2ncc(C)c(N(C)CCCOc3ccc4c(c3)CC[C@H]4CC(=O)O)n2)cc1 , state its recorded pIC50.
Result: 6.43

Query: Given Cc1cnc(-c2ccc(C(C)C)cc2)nc1N(C)CCCOc1ccc2c(c1)CC[C@H]2CC(=O)O , state its recorded pIC50.
Result: 6.21

###

Assignment: determine reported IC50 for the given molecules.
Target: Peroxisome proliferator-activated receptor alpha (Mus musculus, UniProt P23204)
Sequence (P23204 whole entry, the tested form may be a part): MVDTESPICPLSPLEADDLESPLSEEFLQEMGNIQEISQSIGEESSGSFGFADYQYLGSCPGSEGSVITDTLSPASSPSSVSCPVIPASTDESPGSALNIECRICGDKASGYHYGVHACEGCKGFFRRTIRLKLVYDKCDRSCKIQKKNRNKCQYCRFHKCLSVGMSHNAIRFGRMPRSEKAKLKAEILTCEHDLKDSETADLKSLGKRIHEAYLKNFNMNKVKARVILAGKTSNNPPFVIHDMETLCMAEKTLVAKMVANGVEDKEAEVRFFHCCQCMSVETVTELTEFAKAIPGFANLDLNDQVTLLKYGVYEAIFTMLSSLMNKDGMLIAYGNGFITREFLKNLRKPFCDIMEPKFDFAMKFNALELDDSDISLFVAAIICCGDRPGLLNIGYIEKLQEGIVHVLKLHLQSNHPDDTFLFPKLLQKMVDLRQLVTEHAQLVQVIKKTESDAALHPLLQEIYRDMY
Assay: Activity at mouse PPARalpha expressed in CV1 cells by GAL4 transactivation assay
Just the number in µM, nothing appended.

Query: Given CCc1ccc(-c2ncc(C)c(N(C)CCCOc3ccc4c(c3)CC[C@H]4CC(=O)O)n2)cc1 , state its recorded IC50.
Result: 0.67

Query: Given Cc1cnc(-c2ccc(C(C)C)cc2)nc1N(C)CCCOc1ccc2c(c1)CC[C@H]2CC(=O)O , state its recorded IC50.
Result: 2.53

###

Target: Peroxisome proliferator-activated receptor alpha (Homo sapiens)
Sequence (Q07869 whole entry, the tested form may be a part): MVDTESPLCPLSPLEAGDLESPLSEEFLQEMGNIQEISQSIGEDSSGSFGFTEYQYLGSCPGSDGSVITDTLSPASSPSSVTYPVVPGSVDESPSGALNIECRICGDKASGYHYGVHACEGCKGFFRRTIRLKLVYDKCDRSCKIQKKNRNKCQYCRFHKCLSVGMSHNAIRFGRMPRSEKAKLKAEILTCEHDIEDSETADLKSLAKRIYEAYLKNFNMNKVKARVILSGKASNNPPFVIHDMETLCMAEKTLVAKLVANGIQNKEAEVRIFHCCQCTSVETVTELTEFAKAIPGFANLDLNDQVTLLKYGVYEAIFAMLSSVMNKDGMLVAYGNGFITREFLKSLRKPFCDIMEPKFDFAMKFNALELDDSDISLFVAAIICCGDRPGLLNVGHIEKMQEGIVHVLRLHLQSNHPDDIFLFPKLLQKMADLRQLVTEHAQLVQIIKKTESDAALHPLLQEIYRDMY
Assay: Activity at human PPARalpha expressed in CV1 cells by GAL4 transactivation assay
REPORTED ENDPOINT: IC50

Query: Given CCc1ccc(-c2ncc(C)c(N(C)CCCOc3ccc4c(c3)CC[C@H]4CC(=O)O)n2)cc1 , state its recorded IC50.
Result: 175 nM

Query: Given Cc1cnc(-c2ccc(C(C)C)cc2)nc1N(C)CCCOc1ccc2c(c1)CC[C@H]2CC(=O)O , state its recorded IC50.
Result: 237 nM

Query: Given CC(=O)c1sc(-c2ccc(OCCCOc3ccc4c(c3)CC[C@H]4CC(=O)O)nc2)nc1C , state its recorded IC50.
Result: > 6000 nM

###

Target: Peroxisome proliferator-activated receptor delta (Homo sapiens, UniProt Q03181)
Sequence (Q03181 whole entry): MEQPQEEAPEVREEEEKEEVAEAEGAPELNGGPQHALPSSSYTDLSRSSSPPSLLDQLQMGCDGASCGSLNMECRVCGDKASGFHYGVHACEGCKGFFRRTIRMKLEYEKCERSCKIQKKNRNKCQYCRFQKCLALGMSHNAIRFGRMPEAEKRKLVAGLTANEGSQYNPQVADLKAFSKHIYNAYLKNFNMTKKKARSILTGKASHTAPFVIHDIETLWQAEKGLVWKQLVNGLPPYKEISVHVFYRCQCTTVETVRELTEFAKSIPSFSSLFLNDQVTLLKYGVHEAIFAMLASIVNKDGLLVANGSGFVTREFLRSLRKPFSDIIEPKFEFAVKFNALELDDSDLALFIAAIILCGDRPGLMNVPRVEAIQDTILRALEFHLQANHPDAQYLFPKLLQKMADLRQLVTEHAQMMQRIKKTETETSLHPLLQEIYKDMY
Test: Agonist activity at human PPARdelta by FRET assay
Assignment: determine reported EC50 for the given molecules.
Just the number in nM, nothing appended.

Query: Given CCc1ccc(-c2nccc(N(C)CCCOc3ccc4c(c3)CC[C@H]4CC(=O)O)n2)cc1 , state its recorded EC50.
Result: 25

Query: Given CCOc1ccc(-c2ncc(C)c(N(C)CCCOc3ccc4c(c3)CC[C@H]4CC(=O)O)n2)cc1 , state its recorded EC50.
Result: 58

Query: Given Cc1ccc(-c2ncc(C)c(N(C)CCCOc3ccc4c(c3)CC[C@H]4CC(=O)O)n2)cc1 , state its recorded EC50.
Result: 9

Query: Given CCc1ccc(-c2ncc(CC)c(N(C)CCCOc3ccc4c(c3)CC[C@H]4CC(=O)O)n2)cc1 , state its recorded EC50.
Result: 2

Query: Given Cc1cnc(-c2ccccc2)nc1N(C)CCCOc1ccc2c(c1)CC[C@H]2CC(=O)O , state its recorded EC50.
Result: 24

Query: Given COc1ccc(-c2ncc(C)c(N(C)CCCOc3ccc4c(c3)CC[C@H]4CC(=O)O)n2)cc1 , state its recorded EC50.
Result: 12

Query: Given Cc1cnc(-c2ccc(C(C)(C)C)cc2)nc1N(C)CCCOc1ccc2c(c1)CC[C@H]2CC(=O)O , state its recorded EC50.
Result: 28

Query: Given CCc1ccc(-c2ncc(C)c(N(C)CCCOc3ccc4c(c3)CC[C@H]4CC(=O)O)n2)cc1 , state its recorded EC50.
Result: 10

Query: Given Cc1cnc(-c2cccc(Cl)c2)nc1N(C)CCCOc1ccc2c(c1)CC[C@H]2CC(=O)O , state its recorded EC50.
Result: 23

Query: Given Cc1cnc(-c2ccc(C(C)C)cc2)nc1N(C)CCCOc1ccc2c(c1)CC[C@H]2CC(=O)O , state its recorded EC50.
Result: 34

###

Target: Peroxisome proliferator-activated receptor gamma (Mus musculus, UniProt P37238)
Sequence (P37238 whole entry): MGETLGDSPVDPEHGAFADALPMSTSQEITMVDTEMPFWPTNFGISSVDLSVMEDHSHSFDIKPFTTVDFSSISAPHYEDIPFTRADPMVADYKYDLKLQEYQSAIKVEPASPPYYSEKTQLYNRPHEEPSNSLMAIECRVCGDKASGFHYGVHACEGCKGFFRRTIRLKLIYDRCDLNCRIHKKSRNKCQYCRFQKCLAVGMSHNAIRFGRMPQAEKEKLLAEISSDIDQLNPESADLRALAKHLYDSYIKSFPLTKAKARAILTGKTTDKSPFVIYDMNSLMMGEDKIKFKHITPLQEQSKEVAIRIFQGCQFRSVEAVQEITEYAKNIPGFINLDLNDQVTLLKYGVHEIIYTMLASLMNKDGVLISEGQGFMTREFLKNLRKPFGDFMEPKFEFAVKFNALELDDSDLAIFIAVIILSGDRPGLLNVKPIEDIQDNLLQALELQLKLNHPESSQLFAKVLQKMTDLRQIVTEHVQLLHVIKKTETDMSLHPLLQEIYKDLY
Experiment: Agonist activity at PPARgamma in mouse 3T3-L1 cells by IRBA
// assign condition met if EC50 falls strictly below 800 nM, else condition not met (ties count as condition not met)

Query: Lab note: EC50 threshold 800 nM. Does this compound come in strictly under it? Cc1cccc(-c2ncc(C)c(N(C)CCCOc3ccc4c(c3)CC[C@H]4CC(=O)O)n2)c1
Result: condition met

Query: Lab note: EC50 threshold 800 nM. Does this compound come in strictly under it? Cc1cnc(-c2ccccc2)nc1N(C)CCCOc1ccc2c(c1)CC[C@H]2CC(=O)O
Result: condition met

Query: Lab note: EC50 threshold 800 nM. Does this compound come in strictly under it? CCc1ccc(-c2ncc(CC)c(N(C)CCCOc3ccc4c(c3)CC[C@H]4CC(=O)O)n2)cc1
Result: condition not met

Query: Lab note: EC50 threshold 800 nM. Does this compound come in strictly under it? Cc1cnc(-c2ccc(F)cc2)nc1N(C)CCCOc1ccc2c(c1)CC[C@H]2CC(=O)O
Result: condition not met
